# Condition Context: enterocloster bolteae, 12 h, 2 µM
# Description: The drug is tested on Clostridium bolteae strain: ATCCBAA-613 for biotransformation. The drug concentrations were measured before and after a 12-h incubation by liquid-chromatography-coupled mass spectrometry (LC–MS)
Quantity Name: Bacterial Biotransformation

Below: 4 compounds and their reported Bacterial Biotransformation.
INSERT INTO results (compound, quantity_name, result) VALUES
  ('CNCC[C@H](Oc1cccc2ccccc12)c1cccs1', 'Bacterial Biotransformation', 'Compound NOT metabolized'),
  ('CCCC(=O)Nc1ccc(OCC(O)CNC(C)C)c(C(C)=O)c1 (stereo not given)', 'Bacterial Biotransformation', 'Compound NOT metabolized'),
  ('CC(C)NCC(O)COc1ccc(COCCOC(C)C)cc1.CC(C)NCC(O)COc1ccc(COCCOC(C)C)cc1.O=C(O)/C=C/C(=O)O (stereo not given) [BISOPROLOL FUMARATE]', 'Bacterial Biotransformation', 'Compound NOT metabolized'),
  ('CCCCC(=O)O[C@]1(C(=O)CO)[C@@H](C)C[C@H]2[C@@H]3CCC4=CC(=O)C=C[C@]4(C)[C@@]3(F)[C@@H](O)C[C@@]21C [BETAMETHASONE VALERATE]', 'Bacterial Biotransformation', 'Compound metabolized');

Need Bacterial Biotransformation, item COc1cc2nc(N(C)CCCNC(=O)C3CCCO3)nc(N)c2cc1OC (stereo not given)
Compound NOT metabolized

* * *

# Protocol Notes: The drug is tested on Bacteroides uniformis strain: ATCC8492 for biotransformation. The drug concentrations were measured before and after a 12-h incubation by liquid-chromatography-coupled mass spectrometry (LC–MS)
# Condition Context: 2 µM
Quantity Name: Bacterial Biotransformation

INSERT INTO measurements (molecule, result) VALUES
  ('O=C(O)c1cc(/N=N/c2ccc(S(=O)(=O)Nc3ccccn3)cc2)ccc1O [SULFASALAZINE]', 'Compound metabolized'),
  ('CN1CCc2cccc3c2[C@H]1Cc1ccc(O)c(O)c1-3 [APOMORPHINE]', 'Compound NOT metabolized'),
  ('Cc1nc2n(c(=O)c1CCN1CCC(c3noc4cc(F)ccc34)CC1)CCCC2O (stereo not given) [PALIPERIDONE]', 'Compound metabolized'),
  ('O=C(NC(Cc1cc(=O)[nH]c2ccccc12)C(=O)O)c1ccc(Cl)cc1 (stereo not given) [REBAMIPIDE]', 'Compound metabolized');

Note: attention shifts to another entry.
Need Bacterial Biotransformation, item CN1C(=O)CCS(=O)(=O)C1c1ccc(Cl)cc1 (stereo not given) [CHLORMEZANONE]
Compound NOT metabolized

* * *

# Condition Context: akkermansia muciniphila, 12 h, 2 µM
# Description: The drug is tested on Akkermansia muciniphila strain: ATCC BAA-835 for biotransformation. The drug concentrations were measured before and after a 12-h incubation by liquid-chromatography-coupled mass spectrometry (LC–MS)
Quantity Name: Bacterial Biotransformation

INSERT INTO assay_data (molecule, result) VALUES
  ('Nc1nc(NC2CC2)c2ncn([C@H]3C=C[C@@H](CO)C3)c2n1.Nc1nc(NC2CC2)c2ncn([C@H]3C=C[C@@H](CO)C3)c2n1.O=S(=O)(O)O [ABACAVIR SULFATE]', 'Compound NOT metabolized'),
  ('COc1cc2nc(N3CCN(C(=O)C4CCCO4)CC3)nc(N)c2cc1OC (stereo not given)', 'Compound NOT metabolized'),
  ('CC(=O)OCC(=O)[C@@]12N=C(C)O[C@@H]1C[C@H]1[C@@H]3CCC4=CC(=O)C=C[C@]4(C)[C@H]3[C@@H](O)C[C@@]12C', 'Compound metabolized'),
  ('CCN(CC)CCCC(C)Nc1c2ccc(Cl)cc2nc2ccc(OC)cc12 (stereo not given)', 'Compound NOT metabolized'),
  ('N#Cc1ccc2[nH]cc(CCCCN3CCN(c4ccc5oc(C(N)=O)cc5c4)CC3)c2c1', 'Compound NOT metabolized');

Need Bacterial Biotransformation, item O=C(NC(Cc1cc(=O)[nH]c2ccccc12)C(=O)O)c1ccc(Cl)cc1 (stereo not given) [REBAMIPIDE]
Compound NOT metabolized

Need Bacterial Biotransformation, item C[C@H]1O[C@@H](O[C@H]2[C@@H](O)C[C@H](O[C@H]3[C@@H](O)C[C@H](O[C@H]4CC[C@@]5(C)[C@H](CC[C@@H]6[C@@H]5C[C@@H](O)[C@]5(C)[C@@H](C7=CC(=O)OC7)CC[C@]65O)C4)O[C@@H]3C)O[C@@H]2C)C[C@H](O)[C@@H]1O
Compound NOT metabolized

Need Bacterial Biotransformation, item Cc1nc2n(c(=O)c1CCN1CCC(c3noc4cc(F)ccc34)CC1)CCCC2O (stereo not given)
Compound metabolized

Need Bacterial Biotransformation, item O=C(CCCN1CCC(O)(c2ccc(Cl)cc2)CC1)c1ccc(F)cc1
Compound NOT metabolized

Need Bacterial Biotransformation, item CCOc1ccc2nc(S(N)(=O)=O)sc2c1 [ETHOXZOLAMIDE]
Compound metabolized

Need Bacterial Biotransformation, item CC(C)c1c(CN(C)C(C)Cc2ccccc2)n(C)n(-c2ccccc2)c1=O (stereo not given)
Compound metabolized

Need Bacterial Biotransformation, item CCCCC(=O)N(Cc1ccc(-c2ccccc2-c2nnn[nH]2)cc1)[C@H](C(=O)O)C(C)C
Compound NOT metabolized

Need Bacterial Biotransformation, item CC(=O)CCCCn1c(=O)c2c(ncn2C)n(C)c1=O
Compound NOT metabolized

Need Bacterial Biotransformation, item C[C@]12C=CC(=O)C=C1CC[C@@H]1[C@@H]2C(=O)C[C@@]2(C)[C@H]1CC[C@]2(O)C(=O)CO
Compound NOT metabolized

Need Bacterial Biotransformation, item O=C(O[C@H]1C[C@H]2CC[C@@H](C1)[N+]21CCCC1)C(O)(c1ccccc1)c1ccccc1.[Cl-] [TROSPIUM CHLORIDE]
Compound NOT metabolized
